These entries and their values trace back to ChEMBL document CHEMBL1130246.

Molecular target: Epidermal growth factor receptor (Homo sapiens)
Experiment: Inhibition of phosphorylation of polyglutamic acid/tyrosine random copolymer by epidermal growth factor receptor.
pIC50: −log10 of the molar value.
MEASURED ATTRIBUTE: pIC50

* Cc1cccc(Nc2ncnc3cc(NCCCCN(C)C)ncc23)c1 | 8.27
* CN(CC(=O)O)c1cc2ncnc(Nc3cccc(Br)c3)c2cn1 | 7.80
* O=C(O)CNc1cc2ncnc(Nc3cccc(Br)c3)c2cn1 | 8.82
* OCC(O)CNc1cc2ncnc(Nc3cccc(Br)c3)c2cn1 (stereo not drawn) | 9.04
* CN(C)CCN(C)c1cc2ncnc(Nc3cccc(Br)c3)c2cn1 | 7.40

1. OCCN(CCO)c1cc2ncnc(Nc3cccc(Br)c3)c2cn1
2. O=S(=O)(O)CCNc1cc2ncnc(Nc3cccc(Br)c3)c2cn1
(Q) Given the two records 1 and 2 , choose the one whose pIC50 value is lower. Lab log: write the label of the selected item as the result.
(A) 1

A. CN1CCN(CCCNc2cc3ncnc(Nc4cccc(Br)c4)c3cn2)CC1
B. OCCN(CCO)CCNc1cc2ncnc(Nc3cccc(Br)c3)c2cn1
C. [O-][N+]1(CCCNc2cc3ncnc(Nc4cccc(Br)c4)c3cn2)CCOCC1
D. OCCN(CCO)CCCNc1cc2ncnc(Nc3cccc(Br)c3)c2cn1
(Q) In this exercise, place the 4 compounds in ascending sequence of their recorded pIC50. Please reply with the labels ordered as requested. Many thanks.
(A) B, A, D, C

1. Cc1cccc(Nc2ncnc3cc(NCCCN4CCN(C)CC4)ncc23)c1
2. CN(CC(O)CO)c1cc2ncnc(Nc3cccc(Br)c3)c2cn1 (stereo not drawn)
(Q) Given the two records 1 and 2 , choose the one whose pIC50 value is lower. Lab log: write the label of the selected item as the result.
(A) 1
(1: 8.25, 2: 8.49)

###

Target: Epidermal growth factor receptor (Homo sapiens, UniProt P00533)
Sequence (P00533 whole entry): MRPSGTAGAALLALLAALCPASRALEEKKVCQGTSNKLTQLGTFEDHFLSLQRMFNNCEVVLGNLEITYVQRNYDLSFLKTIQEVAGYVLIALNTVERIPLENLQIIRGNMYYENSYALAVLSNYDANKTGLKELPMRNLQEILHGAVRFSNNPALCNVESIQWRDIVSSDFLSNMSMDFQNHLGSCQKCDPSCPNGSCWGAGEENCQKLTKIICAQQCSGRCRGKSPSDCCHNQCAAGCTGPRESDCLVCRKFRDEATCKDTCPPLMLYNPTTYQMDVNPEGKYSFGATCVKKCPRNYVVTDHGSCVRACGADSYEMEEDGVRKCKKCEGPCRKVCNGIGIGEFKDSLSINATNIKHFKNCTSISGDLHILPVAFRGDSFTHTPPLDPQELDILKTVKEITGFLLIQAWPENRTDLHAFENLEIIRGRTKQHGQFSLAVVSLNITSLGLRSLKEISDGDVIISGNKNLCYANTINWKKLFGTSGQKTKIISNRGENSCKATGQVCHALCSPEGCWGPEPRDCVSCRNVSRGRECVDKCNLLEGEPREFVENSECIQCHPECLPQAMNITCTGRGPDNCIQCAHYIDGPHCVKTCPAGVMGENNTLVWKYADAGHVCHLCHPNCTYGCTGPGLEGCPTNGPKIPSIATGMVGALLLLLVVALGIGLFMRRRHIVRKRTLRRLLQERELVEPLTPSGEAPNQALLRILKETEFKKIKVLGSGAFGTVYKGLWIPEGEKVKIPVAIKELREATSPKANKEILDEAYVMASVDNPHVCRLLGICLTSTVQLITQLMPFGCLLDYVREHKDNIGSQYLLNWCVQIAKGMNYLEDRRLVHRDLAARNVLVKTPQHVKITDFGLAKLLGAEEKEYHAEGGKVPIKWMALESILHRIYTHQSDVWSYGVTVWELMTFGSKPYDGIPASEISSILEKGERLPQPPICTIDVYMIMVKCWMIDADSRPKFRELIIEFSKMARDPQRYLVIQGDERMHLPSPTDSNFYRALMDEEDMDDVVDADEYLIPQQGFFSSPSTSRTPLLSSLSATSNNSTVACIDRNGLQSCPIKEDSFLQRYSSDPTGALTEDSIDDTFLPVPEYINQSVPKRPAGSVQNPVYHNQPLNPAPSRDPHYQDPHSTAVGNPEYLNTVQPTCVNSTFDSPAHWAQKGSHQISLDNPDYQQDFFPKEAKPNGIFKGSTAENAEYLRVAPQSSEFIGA
Assay: Inhibition of epidermal growth factor receptor (EGFR) autophosphorylation in A431 cells
MEASURED ATTRIBUTE: IC50 (nM)

Solved cases below.
- Brc1cccc(Nc2ncnc3cc(NCCCN4CCOCC4)ncc23)c1: 8.1
- Brc1cccc(Nc2ncnc3cc(NCCN4CCOCC4)ncc23)c1: 36

A. O=C(O)CCNc1cc2ncnc(Nc3cccc(Br)c3)c2cn1
B. OCC(O)CNc1cc2ncnc(Nc3cccc(Br)c3)c2cn1 (stereo unspecified)
(Q) Could you kindly indicate whether A or B has the higher IC50 value? Lab log: write the label of the selected item as the result.
(A) A
(A: 11400 nM, B: 227 nM)

###

Experiment: Solubility in water was determined
Format: physicochemical
# solubility annotations

Solved cases below.
- Cc1cccc(Nc2ncnc3cc(NCCc4c[nH]cn4)ncc23)c1: > 39 mM
- Brc1cccc(Nc2ncnc3cc(NCCCn4ccnc4)ncc23)c1: > 40 mM
- Cc1cccc(Nc2ncnc3cc(NCCCn4ccnc4)ncc23)c1: > 34 mM

Now for the molecule whose solubility we want.
(Q) I have this molecule here, Brc1cccc(Nc2ncnc3cc(NCCc4c[nH]cn4)ncc23)c1 , and I need its recorded solubility.
(A) 35 mM

###

Biological target: Epidermal growth factor receptor (Homo sapiens)
Assay: Inhibition of phosphorylation of polyglutamic acid/tyrosine random copolymer by epidermal growth factor receptor.
pIC50: −log10 of the molar value.
MEASURED ATTRIBUTE: pIC50

Solved cases below.
- CN(C)CCCCNc1cc2ncnc(Nc3cccc(Br)c3)c2cn1: 8.13
- CN(CCO)c1cc2ncnc(Nc3cccc(Br)c3)c2cn1: 8.59
- O=C(O)CCNc1cc2ncnc(Nc3cccc(Br)c3)c2cn1: 9.21

A. NNc1cc2ncnc(Nc3cccc(Br)c3)c2cn1
B. CN(C)CCNc1cc2ncnc(Nc3cccc(Br)c3)c2cn1
C. OCCNc1cc2ncnc(Nc3cccc(Br)c3)c2cn1
(Q) Kindly order the items shown according to pIC50, from the highest value down. Please reply with the labels ordered as requested. Many thanks.
(A) C, A, B

###

Molecular target: Epidermal growth factor receptor (Homo sapiens)
Assay: Inhibition of epidermal growth factor receptor (EGFR) from human A431 carcinoma cells
MEASURED ATTRIBUTE: IC50 (nM)

Solved cases below.
- Brc1cccc(Nc2ncnc3cc(NCCCn4ccnc4)ncc23)c1: 0.51
- Brc1cccc(Nc2ncnc3cc(NCCc4c[nH]cn4)ncc23)c1: 0.91

I. Cc1cccc(Nc2ncnc3cc(NCCc4c[nH]cn4)ncc23)c1
II. Cc1cccc(Nc2ncnc3cc(NCCCn4ccnc4)ncc23)c1
(Q) Given the two records I and II , choose the one whose IC50 value is lower. Lab log: write the label of the selected item as the result.
(A) II
(II: 3.5 nM, I: 7.2 nM)

###

Biological target: Epidermal growth factor receptor (Homo sapiens, UniProt P00533)
Experiment: Inhibition of phosphorylation of polyglutamic acid/tyrosine random copolymer by epidermal growth factor receptor.
pIC50: −log10 of the molar value.
MEASURED ATTRIBUTE: pIC50

* Brc1cccc(Nc2ncnc3cc(NCCN4CCOCC4)ncc23)c1 | 8.49
* CN(CC(O)C(O)C(O)C(O)CO)c1cc2ncnc(Nc3cccc(Br)c3)c2cn1 (stereo not given) | 8.49
* OCC(CO)Nc1cc2ncnc(Nc3cccc(Br)c3)c2cn1 | 7.85
* CN(C)CCCCCNc1cc2ncnc(Nc3cccc(Br)c3)c2cn1 | 8.08
* Brc1cccc(Nc2ncnc3cc(NCCCCN4CCOCC4)ncc23)c1 | 8.27

P. CN(C)CCCNc1cc2ncnc(Nc3cccc(Br)c3)c2cn1
Q. OCC(O)C(O)C(O)C(O)CNc1cc2ncnc(Nc3cccc(Br)c3)c2cn1 (stereo not given)
R. O=C(O)CCCNc1cc2ncnc(Nc3cccc(Br)c3)c2cn1
S. CNc1cc2ncnc(Nc3cccc(C)c3)c2cn1
(Q) In this exercise, place the 4 molecules in ascending sequence of their recorded pIC50. Please reply with the labels ordered as requested. Many thanks.
(A) P, Q, S, R
(P: 8.06, Q: 8.32, S: 8.85, R: 9.55)
